Attribution: the supplement of paper PMC10567573

B1: DLC1 (parent)
chain: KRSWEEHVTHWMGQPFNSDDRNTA

# Variants of: B1
# procedure-details: protein stability index of a GFP-peptide fusion (GPS, HEK-293T) (PSI 1-6); higher = more stable;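 note: lentivirally expressed fusions sorted by FACS into six bins by GFP to DsRed ratio, PSI derived from sequencing read proportions per bin multiplied by bin number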
# measurement-conditions: c terminus: a fixed tail appended

mutant-label: F16L
protein stability index: 3.55
--
mutant-label: R21C
protein stability index: 2.85
--
mutant-label: W11Q
protein stability index: 2.12
--
mutant-label: P15Q
protein stability index: 2.1
--
mutant-label: E5P
protein stability index: 3.95
--
mutant-label: E6V
protein stability index: 2.53
--
mutant-label: A24D
protein stability index: 2.82
--
mutant-label: M12G
protein stability index: 2.63
--
mutant-label: T9S
protein stability index: 2.38
--
mutant-label: N17R
protein stability index: 1.64
--
mutant-label: P15L
protein stability index: 3.4
--
mutant-label: S3I
protein stability index: 3.78
--
mutant-label: A24E
protein stability index: 3.59
--
mutant-label: E6G
protein stability index: 3.48
--
mutant-label: E6C
protein stability index: 2.87
--
mutant-label: M12T
protein stability index: 3.34
--
mutant-label: G13T
protein stability index: 2.18
--
mutant-label: T9Y
protein stability index: 3.04
--
mutant-label: S18Q
protein stability index: 3.02
--
mutant-label: E5N
protein stability index: 3.5
--
mutant-label: R2S
protein stability index: 3.79
--
mutant-label: G13I
protein stability index: 2.25
--
mutant-label: F16S
protein stability index: 3.07
--
mutant-label: W4A
protein stability index: 4.41
--
mutant-label: H10A
protein stability index: 2.17
--
mutant-label: N22C
protein stability index: 1.94
--
mutant-label: H7C
protein stability index: 3.33
--
mutant-label: T23P
protein stability index: 2.46
--
mutant-label: A24P
protein stability index: 2.92
--
mutant-label: G13M
protein stability index: 2.44
--
mutant-label: K1R
protein stability index: 2.99
--
mutant-label: F16T
protein stability index: 2.37
--
mutant-label: T23D
protein stability index: 3.26
--
mutant-label: S3C
protein stability index: 2.24
--
mutant-label: H10V
protein stability index: 2.16
--
mutant-label: H10M
protein stability index: 1.99
--
mutant-label: D19F
protein stability index: 1.85
--
mutant-label: Q14F
protein stability index: 2.65
--
mutant-label: D20G
protein stability index: 2.43
--
mutant-label: D19I
protein stability index: 3.12
--
mutant-label: Q14G
protein stability index: 2.29
--
mutant-label: E5Y
protein stability index: 3.04
--
mutant-label: M12C
protein stability index: 2.97
--
mutant-label: W4F
protein stability index: 4.09
--
mutant-label: P15M
protein stability index: 2.17
--
mutant-label: T23H
protein stability index: 2.23
